The measurements presented in this section are drawn from patent US8445512B2.

TESTED_SYSTEM: KCNQ2/3 channels (Homo sapiens, UniProt O43525+O43526)
ASSAY_DETAILS: Fluorescence assay using a voltage sensitive dye (fluorimetry)
REPORTED_CONDITIONS: CHO-K1 cells expressing KCNQ2/3 channels
pEC50: −log10 of the molar value.
METRIC: pEC50

The examples below pair each entry with its known result.
{"COMPOUND_STRUCTURE_STRING": "C/C=C/c1nc2cc(C(F)(F)F)ccc2c(C)c1C(=O)NCc1cccc(F)c1", "TESTED_SYSTEM": "KCNQ2/3 channels (Homo sapiens, UniProt O43525+O43526)", "METRIC": "pEC50", "OBSERVED": 6.35}
{"COMPOUND_STRUCTURE_STRING": "Cc1c(C(=O)NCc2cccc(F)c2)c(CO)nc2cc(C(F)(F)F)ccc12", "TESTED_SYSTEM": "KCNQ2/3 channels (Homo sapiens, UniProt O43525+O43526)", "METRIC": "pEC50", "OBSERVED": 5.54}
{"COMPOUND_STRUCTURE_STRING": "COCc1nc2cc(C(F)(F)F)ccc2c(C)c1C(=O)NCc1cccc(F)c1", "TESTED_SYSTEM": "KCNQ2/3 channels (Homo sapiens, UniProt O43525+O43526)", "METRIC": "pEC50", "OBSERVED": 6.20}
{"COMPOUND_STRUCTURE_STRING": "Cc1c(C(=O)NCc2ccc(F)cc2)c(C(C)C)nc2cc(C(F)(F)F)ccc12", "TESTED_SYSTEM": "KCNQ2/3 channels (Homo sapiens, UniProt O43525+O43526)", "METRIC": "pEC50", "OBSERVED": 7.19}
{"COMPOUND_STRUCTURE_STRING": "CC(C)=Cc1nc2cc(C(F)(F)F)ccc2c(C)c1C(=O)NCc1cccc(F)c1", "TESTED_SYSTEM": "KCNQ2/3 channels (Homo sapiens, UniProt O43525+O43526)", "METRIC": "pEC50", "OBSERVED": 6.79}

(P) Cc1c(C(=O)NCc2cccc(F)c2)c(C2CC2)nc2cc(C(F)(F)F)ccc12
(Q) Cc1c(C(=O)NCc2cccc(F)c2)c(C(C)C)nc2cc(C#N)ccc12
Q: Pick the one with the larger pEC50: P vs Q When you have decided, please share the label of that item.
Result: P
